Documented % of control remaining across a set of compounds
# Assayed system: human pancreatic lipase (hPL) (Homo sapiens, UniProt P16233)
# Construct: gene PNLIP
# Sequence (P16233 17-465): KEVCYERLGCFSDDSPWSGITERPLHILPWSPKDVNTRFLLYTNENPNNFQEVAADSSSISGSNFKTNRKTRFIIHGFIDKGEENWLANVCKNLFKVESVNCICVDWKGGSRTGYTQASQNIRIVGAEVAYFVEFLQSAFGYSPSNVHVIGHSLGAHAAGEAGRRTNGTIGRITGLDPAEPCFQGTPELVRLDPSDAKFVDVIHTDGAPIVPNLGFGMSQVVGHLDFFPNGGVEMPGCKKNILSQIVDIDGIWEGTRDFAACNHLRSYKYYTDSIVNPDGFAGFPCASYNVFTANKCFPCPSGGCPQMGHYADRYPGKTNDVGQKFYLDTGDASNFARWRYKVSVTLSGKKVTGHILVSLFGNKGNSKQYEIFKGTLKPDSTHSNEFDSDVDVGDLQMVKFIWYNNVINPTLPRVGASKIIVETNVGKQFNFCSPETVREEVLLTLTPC
# Condition set: 10 µM; inhibitor
# Experimental: First, we evaluated the inhibitory effect of 94 natural products derived from herbs and 94 drugs on hPL. In our high-throughput screening system, 1 ug/mL hPL was used, and the final concentration of the 94 natural products derived from herbs and 94 drugs used was 10 μM. […] The reaction was initiated by adding RLE to the preincubated enzyme mixture at 37 °C, and metabolite formation was determined by measuring the fluorescence intensity of resorufin at 590 nm. […]
Kindly provide the numeric value in % only, without the unit symbol.

% of control remaining in this record for CC(C)Cc1ccc(C(C)C(=O)O)cc1 (centres unmarked) : 103.68

% of control remaining in this record for C=C1C(=O)O[C@@H]2C[C@@]3(C)CCC[C@H](C)C3=C[C@H]12 : 61.11

% of control remaining in this record for C=CC(=O)Nc1cc(Nc2nccc(-c3cn(C)c4ccccc34)n2)c(OC)cc1N(C)CCN(C)C : 92.69

% of control remaining in this record for COc1c(O)cc(O)c2c(=O)cc(-c3ccccc3)oc12 : 106.17

Others:
% of control remaining in this record for C=C1CC[C@@H]2[C@](C)(CO)[C@H](O)CC[C@@]2(C)[C@@H]1C/C=C1/C(=O)OC[C@H]1O [Andrographolide] : 70.38

% of control remaining in this record for COc1ccc2cc3[n+](cc2c1O)CCc1cc2c(cc1-3)OCO2 : 86.09
